All values here come from patent US20090181889A1.

Listed next: entries and their corresponding % Control [35S]GTPγS binding ± SEM, U51 (+Tet).
Biological target: HHV-6B U51 (Human herpesvirus 6B, UniProt P52542)
Sequence (P52542 whole entry, looked up): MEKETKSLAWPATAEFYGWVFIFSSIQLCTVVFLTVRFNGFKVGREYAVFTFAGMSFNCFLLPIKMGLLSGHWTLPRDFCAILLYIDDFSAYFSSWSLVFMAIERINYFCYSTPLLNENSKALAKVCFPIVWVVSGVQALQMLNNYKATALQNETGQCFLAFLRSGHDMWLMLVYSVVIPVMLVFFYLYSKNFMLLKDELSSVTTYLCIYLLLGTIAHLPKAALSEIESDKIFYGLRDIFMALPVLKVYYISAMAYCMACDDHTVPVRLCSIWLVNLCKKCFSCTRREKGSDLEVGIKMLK
Type: biochemical
Conditions: HHV-6B U51 HEK293 membranes, induced with 1 μg/ml tetracycline 24 h
outcome.measure: % Control [35S]GTPγS binding ± SEM, U51 (+Tet)

{"columns": ["given.smiles", "assay.result"],
 "data": [
  ["C[C@@H](NC(=O)[C@@H](N)Cc1ccc(O)cc1)C(=O)NCC(=O)N(C)[C@@H](Cc1ccccc1)C(=O)NCCO", "86 ± 6%"],
  ["Oc1ccc2c3c1O[C@H]1c4[nH]c5ccccc5c4C[C@@]4(O)[C@@H](C2)N(CC2CC2)CC[C@]314", "97 ± 4%"],
  ["CC(C)[C@H](NC(=O)[C@H](CCC(=O)O)NC(=O)[C@H](Cc1ccccc1)NC(=O)[C@@H](C)NC(=O)[C@@H](N)Cc1ccc(O)cc1)C(=O)N[C@H](C(=O)NCC(N)=O)C(C)C", "91 ± 6%"],
  ["CN1CC[C@]23c4c5ccc(O)c4O[C@H]2[C@@H](O)C=C[C@H]3[C@H]1C5", "91 ± 9%"]
]}
